# self-splicing fitness (ln) per entry
Assay: self-splicing fitness, log relative to wild type (ln ratio); higher = more splicing; Tetrahymena group I intron in knt gene, E. coli kanamycin selection, DiMSum; sequences stand for … in CUCUCU…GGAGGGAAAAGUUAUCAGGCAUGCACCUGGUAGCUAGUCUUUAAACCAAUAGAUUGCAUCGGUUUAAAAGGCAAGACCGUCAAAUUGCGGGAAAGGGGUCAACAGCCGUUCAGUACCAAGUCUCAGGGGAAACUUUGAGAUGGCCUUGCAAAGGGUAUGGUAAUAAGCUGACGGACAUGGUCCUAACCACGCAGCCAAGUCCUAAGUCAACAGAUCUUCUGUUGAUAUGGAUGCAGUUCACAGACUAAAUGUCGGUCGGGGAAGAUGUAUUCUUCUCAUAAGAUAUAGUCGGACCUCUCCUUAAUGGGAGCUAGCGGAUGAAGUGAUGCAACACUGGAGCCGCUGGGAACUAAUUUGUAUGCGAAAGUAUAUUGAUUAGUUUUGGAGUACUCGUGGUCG;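 further: selection with 25 µg/mL kanamycin versus none on LB agar overnight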
Conditions: 30 °C

# sequence.record, self-splicing fitness (ln)
records = [
    ("AUAGAGCAAUAUUACGAGGG", -3.05),
    ("UUGCAGCAAUAUUACGCGAU", -2.02),
    ("GGAUAGCAAUAUUACGUCGC", -1.97),
    ("CGAGAGCAAUAUUACGAAAC", -2.91),
    ("GAAAAGCAAUAUUACGAGGA", -2.03),
    ("GUCGAGCAAUAUUACGUUAG", -2.95),
]

----------
Assay: self-splicing fitness, log relative to wild type (ln ratio); higher = more splicing; Tetrahymena group I intron in knt gene, E. coli kanamycin selection, DiMSum; sequences stand for … in CUCUCU…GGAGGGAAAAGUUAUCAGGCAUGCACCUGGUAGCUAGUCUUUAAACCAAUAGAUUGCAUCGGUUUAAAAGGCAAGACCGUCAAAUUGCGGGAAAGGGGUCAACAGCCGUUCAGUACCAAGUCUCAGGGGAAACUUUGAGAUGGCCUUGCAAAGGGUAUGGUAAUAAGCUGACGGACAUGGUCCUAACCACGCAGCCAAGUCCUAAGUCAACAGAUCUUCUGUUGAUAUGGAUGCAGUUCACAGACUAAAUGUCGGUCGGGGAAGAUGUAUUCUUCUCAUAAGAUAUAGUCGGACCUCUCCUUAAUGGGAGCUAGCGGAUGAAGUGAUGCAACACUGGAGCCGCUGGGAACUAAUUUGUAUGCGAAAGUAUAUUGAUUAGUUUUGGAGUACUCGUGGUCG
Conditions: 37 °C
parameter: self-splicing fitness (ln)

# sequence.record, parameter, observed
data = [
    ("UGGUAGCAAUAUUACGCAUC", "self-splicing fitness (ln)", -3.68),
    ("AGUCAGCAAUAUUACGGAGG", "self-splicing fitness (ln)", -1.31),
    ("UACGAGCAAUAUUACGUAUG", "self-splicing fitness (ln)", -3.34),
    ("AGCUAGCAAUAUUACGAUGA", "self-splicing fitness (ln)", -2.54),
    ("CGUUAGCAAUAUUACGUACC", "self-splicing fitness (ln)", -1.09),
    ("GUUUAGCAAUAUUACGCGUG", "self-splicing fitness (ln)", -0.806),
    ("UGAUAGCAAUAUUACGAUCU", "self-splicing fitness (ln)", 0.105),
    ("UUCAAGCAAUAUUACGAAUU", "self-splicing fitness (ln)", -1.69),
    ("GGGGAGCAAUAUUACGGUUA", "self-splicing fitness (ln)", -2.75),
    ("GCUUAGCAAUAUUACGAACG", "self-splicing fitness (ln)", 0.062),
    ("GAUAAGCAAUAUUACGGGCU", "self-splicing fitness (ln)", -1.91),
    ("ACCUAGCAAUAUUACGACAU", "self-splicing fitness (ln)", -0.119),
    ("GGUAAGCAAUAUUACGGCAG", "self-splicing fitness (ln)", -2.49),
    ("GGAUAGCAAUAUUACGGCUC", "self-splicing fitness (ln)", -1.59),
    ("GACGAGCAAUAUUACGCAUC", "self-splicing fitness (ln)", -2.06),
    ("AUGCAGCAAUAUUACGUUCC", "self-splicing fitness (ln)", -1.17),
    ("GGUCAGCAAUAUUACGAGGG", "self-splicing fitness (ln)", -2.35),
    ("UUUGAGCAAUAUUACGAUGA", "self-splicing fitness (ln)", -0.161),
    ("ACCUAGCAAUAUUACGAACC", "self-splicing fitness (ln)", -1.07),
    ("UACCAGCAAUAUUACGUCCA", "self-splicing fitness (ln)", 0.176),
    ("CGCAAGCAAUAUUACGAAAG", "self-splicing fitness (ln)", -1.12),
    ("UAUAAGCAAUAUUACGGAAC", "self-splicing fitness (ln)", -2.94),
    ("GUUCAGCAAUAUUACGCGCA", "self-splicing fitness (ln)", 0.567),
    ("AGGCAGCAAUAUUACGAACA", "self-splicing fitness (ln)", -0.167),
    ("CGCAAGCAAUAUUACGGCGG", "self-splicing fitness (ln)", 0.31),
    ("UGCAAGCAAUAUUACGAGGA", "self-splicing fitness (ln)", -0.992),
    ("CGCUAGCAAUAUUACGGAUG", "self-splicing fitness (ln)", -0.108),
    ("CUGGAGCAAUAUUACGGCUG", "self-splicing fitness (ln)", -0.00856),
    ("GAAAAGCAAUAUUACGAGCC", "self-splicing fitness (ln)", -0.409),
    ("GAACAGCAAUAUUACGGGGG", "self-splicing fitness (ln)", -2.42),
    ("UGGAAGCAAUAUUACGGAGU", "self-splicing fitness (ln)", -2.75),
    ("CUCAAGCAAUAUUACGCCUG", "self-splicing fitness (ln)", -2.52),
    ("CGAUAGCAAUAUUACGCGAG", "self-splicing fitness (ln)", -2.42),
    ("UCCCAGCAAUAUUACGCAGU", "self-splicing fitness (ln)", -0.7),
    ("AACAAGCAAUAUUACGCCAA", "self-splicing fitness (ln)", -2.55),
    ("UUAAAGCAAUAUUACGCUGA", "self-splicing fitness (ln)", -0.46),
    ("GAAGAGCAAUAUUACGCUAG", "self-splicing fitness (ln)", -1.13),
    ("AUUGAGCAAUAUUACGUAGG", "self-splicing fitness (ln)", 0.0777),
    ("UGCGAGCAAUAUUACGCUUA", "self-splicing fitness (ln)", -1.46),
    ("GUAGAGCAAUAUUACGGCUU", "self-splicing fitness (ln)", -0.03),
    ("UUCAAGCAAUAUUACGUCCA", "self-splicing fitness (ln)", -0.803),
    ("AGAGAGCAAUAUUACGAACU", "self-splicing fitness (ln)", -1.57),
    ("AGACAGCAAUAUUACGACCU", "self-splicing fitness (ln)", -0.545),
    ("GAAUAGCAAUAUUACGAAAC", "self-splicing fitness (ln)", -0.632),
    ("GAAGAGCAAUAUUACGGCUA", "self-splicing fitness (ln)", -0.512),
    ("AAGCAGCAAUAUUACGUACG", "self-splicing fitness (ln)", -0.645),
    ("UGACAGCAAUAUUACGUGUU", "self-splicing fitness (ln)", -2.22),
    ("UCUGAGCAAUAUUACGCCUU", "self-splicing fitness (ln)", -1.54),
    ("AGAAAGCAAUAUUACGAAAG", "self-splicing fitness (ln)", -1.94),
    ("GUGAAGCAAUAUUACGUUCU", "self-splicing fitness (ln)", -0.218),
    ("CAUAAGCAAUAUUACGUCUU", "self-splicing fitness (ln)", -2.41),
    ("CAGCAGCAAUAUUACGCUAA", "self-splicing fitness (ln)", -1.72),
    ("CCAAAGCAAUAUUACGUAUA", "self-splicing fitness (ln)", -2.3),
    ("UUCUAGCAAUAUUACGCAUC", "self-splicing fitness (ln)", -0.769),
    ("CGUGAGCAAUAUUACGUGGG", "self-splicing fitness (ln)", -1.99),
    ("GGACAGCAAUAUUACGCUAU", "self-splicing fitness (ln)", -0.49),
    ("UCUCAGCAAUAUUACGAGGU", "self-splicing fitness (ln)", -1.53),
    ("UUCGAGCAAUAUUACGCAAG", "self-splicing fitness (ln)", -1.66),
    ("GAGCAGCAAUAUUACGACUU", "self-splicing fitness (ln)", -0.841),
]
